Hi there, I'd appreciate the recorded solubility kinetic for every entry that follows.
# REPORTED CONDITIONS: buffer; pH 7.4; 200.0 µM

Query :: Give me measured solubility kinetic, please, for this molecule: "Cc1cc(/C=C(\C#N)C(=O)O)c(C)n1CCC(C)C"
Result :: > 39.1 µg/mL

Query :: Using the record for "COc1ccc(-c2ccc(CCC(=O)O)n2-c2ccccc2O)cc1" , state its measured solubility kinetic.
Result :: > 50.6 µg/mL

Query :: Return solubility kinetic (reported value) for this molecule: CCOC(=O)C(Cc1ccccc1)C(=O)NCc1ccccc1 (stereo not drawn)
Result :: > 46.7 µg/mL

Query :: Kindly indicate its recorded solubility kinetic. Item: "CC1(C)OC(=O)C(=NNc2ccc(C(=O)O)cc2)C(=O)O1"
Result :: > 43.8 µg/mL

Query :: Look up and state reported solubility kinetic for "Cc1cc(C)nc(N2Cc3ccccc3C2=N)n1"
Result :: > 35.7 µg/mL

Query :: Answer with reported solubility kinetic of "COc1cccc(NC(=O)CSc2nnc(-c3cccnc3)o2)c1"
Result :: > 51.4 µg/mL

Query :: Indicate the recorded solubility kinetic value for this molecule: "Cc1ccc(S(=O)(=O)NCCC(=O)NCCc2ccc(S(N)(=O)=O)cc2)cc1C"
Result :: > 65.9 µg/mL

Query :: Find the measured solubility kinetic of CCc1ccc(N2C(=O)CC(N3CCN(c4ccccn4)CC3)C2=O)cc1 (stereo not drawn) and report it.
Result :: > 54.7 µg/mL

Query :: Please look at this molecule and report its solubility kinetic: "Cc1cc(C(=O)Nc2ccc(OCc3ccccc3)cc2)c(C)o1"
Result :: < 0.7 µg/mL

Query :: // Input: O=S(=O)(Nc1nc2ccccc2nc1NCC1CCCO1)c1ccccc1 (stereo not drawn) . Output its solubility kinetic only.
Result :: > 57.7 µg/mL

Query :: Complete the entry with solubility kinetic for "O=C(O)CC1(CC(=O)Nc2ccccc2N2CCOCC2)CCCC1"
Result :: > 52 µg/mL

Query :: Give reported solubility kinetic value for CC(NC(=O)c1ccc([N+](=O)[O-])o1)C1CC2CCC1C2 (stereo not drawn)
Result :: > 41.7 µg/mL

Query :: Quickly give me recorded solubility kinetic for "Cc1ccc(-c2cc(C(=O)NC3CCCCC3)no2)cc1"
Result :: < 0.3 µg/mL

----------
Give solubility kinetic for every item shown.
# REPORTED CONDITIONS: buffer; pH 7.4; 200.0 µM

Query :: Using the record for Cc1cc(C)c2nc(Cl)c(C3NC(=O)c4ccccc4N3)cc2c1 (stereo not given) , state its measured solubility kinetic.
Result :: < 0.2 µg/mL

Query :: Find the measured solubility kinetic of Cc1ccc(C(=O)NC(C)C2CC3CCC2C3)cc1 (stereo not given) and report it.
Result :: < 0.6 µg/mL

Query :: Indicate the recorded solubility kinetic value for this molecule: CC(=O)c1cccc(NC(=O)CC(C)n2ccnc2)c1 (stereo not given)
Result :: > 40.7 µg/mL

Query :: Dear colleague, please send me the reported solubility kinetic for "O=C(CN1CCCCCC1)Nc1cc(C(F)(F)F)ccc1Cl" when you can.
Result :: < 0.4 µg/mL

Query :: Please list solubility kinetic recorded for the molecule "Cc1ccc(NC(=O)N2CCCCCC2)c(C)c1"
Result :: > 37 µg/mL

Query :: Supply solubility kinetic value. Item: Cc1ccc(N2CC(C(=O)NCCN3CCOCC3)CC2=O)cc1 (stereo not given)
Result :: > 49.7 µg/mL

Query :: For the molecule "Cc1nc2ccccc2c2oc(C(=O)N3CCC(C)CC3)cc12" , give its measured solubility kinetic value.
Result :: > 46.3 µg/mL

Query :: Given the molecule "CCC(=O)c1ccc(OCC(=O)Nc2ccccc2N2CCCCC2)cc1" , write its reported solubility kinetic.
Result :: < 0.4 µg/mL

Query :: Give the measured solubility kinetic for "NC(=O)c1cnccn1"
Result :: > 18.5 µg/mL

Query :: Complete the entry with solubility kinetic for CCC(C)[C@H](NC(=O)Nc1ccccc1F)C(=O)OC (stereo not given in full)
Result :: > 42.3 µg/mL

Query :: For the molecule "O=C1CCCc2c1nc(-c1ccc(F)cc1)n2O" , give its reported solubility kinetic.
Result :: > 36.9 µg/mL

Query :: In one line, give reported solubility kinetic of the entry "Cc1ccc(NC(=O)CN2CCOCC2)c(Br)c1" .
Result :: > 47 µg/mL

Query :: State its solubility kinetic: "COc1ccc(OC)c(-c2cc(C(=O)N3CCOCC3)no2)c1"
Result :: > 47.7 µg/mL

Query :: Please report solubility kinetic for the following molecule: "O=C(Cc1ccsc1)Nc1cc(F)ccc1F"
Result :: > 38 µg/mL

Query :: Supply solubility kinetic value. Item: "CCCn1c(SCC(=O)NCCCN2CCCC2=O)nc2ccccc2c1=O"
Result :: > 60.4 µg/mL

Value source: PubChem BioAssay AID1996
